System Name: homotetrameric HCN2 channels (Mus musculus, UniProt O88703)
Construct: expressed in transfected cells; host or cells: Xenopus laevis oocytes injected with cRNA; inside-out patches
Sequence (O88703 whole entry): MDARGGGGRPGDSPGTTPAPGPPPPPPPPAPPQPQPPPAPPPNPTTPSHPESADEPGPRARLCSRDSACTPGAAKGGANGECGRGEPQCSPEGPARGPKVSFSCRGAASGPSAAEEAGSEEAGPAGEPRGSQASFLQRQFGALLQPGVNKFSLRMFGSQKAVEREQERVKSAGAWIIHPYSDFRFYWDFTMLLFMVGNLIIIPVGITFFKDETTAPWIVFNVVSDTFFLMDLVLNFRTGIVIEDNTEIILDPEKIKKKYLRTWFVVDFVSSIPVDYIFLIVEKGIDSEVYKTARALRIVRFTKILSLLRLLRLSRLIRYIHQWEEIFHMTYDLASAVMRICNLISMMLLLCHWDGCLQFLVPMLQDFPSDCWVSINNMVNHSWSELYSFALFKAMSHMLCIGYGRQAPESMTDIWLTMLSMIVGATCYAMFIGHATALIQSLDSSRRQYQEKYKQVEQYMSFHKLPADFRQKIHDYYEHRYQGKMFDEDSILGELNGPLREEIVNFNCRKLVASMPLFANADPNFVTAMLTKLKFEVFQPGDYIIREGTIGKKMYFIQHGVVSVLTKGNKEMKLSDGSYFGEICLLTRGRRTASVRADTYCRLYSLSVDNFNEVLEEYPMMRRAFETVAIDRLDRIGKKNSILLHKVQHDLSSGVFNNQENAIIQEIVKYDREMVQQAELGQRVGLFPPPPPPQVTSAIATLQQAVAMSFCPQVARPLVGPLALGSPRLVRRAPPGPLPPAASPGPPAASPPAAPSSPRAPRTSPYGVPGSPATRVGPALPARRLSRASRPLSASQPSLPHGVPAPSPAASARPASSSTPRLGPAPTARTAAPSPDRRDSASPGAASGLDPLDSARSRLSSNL
Assay Remarks: Concentration-activation relationship of homotetrameric HCN2 channels, inside-out patches of Xenopus oocytes
Type: cell-based
Test Settings: homotetrameric HCN2 channels; pre-activation at -130 mV, instantaneous current at -100 mV; mean
Under this convention, Met denotes EC50 strictly below 100 nM and Not met denotes EC50 at or above 100 nM.

{"Molecule": "CC(=O)NCCOCCOCCSc1nc2c(N)ncnc2n1C1OC2COP(=O)(O)OC2C1O (centres unmarked)", "Discrete Label": "Not met"}
{"Molecule": "CC(=O)NCCSc1nc2c(N)ncnc2n1C1OC2COP(=O)(O)OC2C1O (centres unmarked)", "Discrete Label": "Met"}
{"Molecule": "CC(=O)NCCCCCCCCCCSc1nc2c(N)ncnc2n1C1OC2COP(=O)(O)OC2C1O (centres unmarked)", "Discrete Label": "Met"}
{"Molecule": "CC(=O)NCC(=O)NCCSc1nc2c(N)ncnc2n1C1OC2COP(=O)(O)OC2C1O (centres unmarked) [10A, 8-(Ac)AGET-cAMP]", "Discrete Label": "Met"}

Req: Just wondering, is EC50 of CC(=O)NCCCCCCSc1nc2c(N)ncnc2n1C1OC2COP(=O)(O)OC2C1O (centres unmarked) below 100 nM?
Resp: Met
